Data provenance: patent US20250032625A1

molecular target: TEAD1 in SK-HEP1 cells (Homo sapiens (Human), UniProt P28347); assay: TEAD degradation in SK-HEP1 cell line (immunofluorescence); type: cell-based; details: 24 hours, ranges, read-out: DC50 SK-HEP1
Sequence (P28347 whole entry): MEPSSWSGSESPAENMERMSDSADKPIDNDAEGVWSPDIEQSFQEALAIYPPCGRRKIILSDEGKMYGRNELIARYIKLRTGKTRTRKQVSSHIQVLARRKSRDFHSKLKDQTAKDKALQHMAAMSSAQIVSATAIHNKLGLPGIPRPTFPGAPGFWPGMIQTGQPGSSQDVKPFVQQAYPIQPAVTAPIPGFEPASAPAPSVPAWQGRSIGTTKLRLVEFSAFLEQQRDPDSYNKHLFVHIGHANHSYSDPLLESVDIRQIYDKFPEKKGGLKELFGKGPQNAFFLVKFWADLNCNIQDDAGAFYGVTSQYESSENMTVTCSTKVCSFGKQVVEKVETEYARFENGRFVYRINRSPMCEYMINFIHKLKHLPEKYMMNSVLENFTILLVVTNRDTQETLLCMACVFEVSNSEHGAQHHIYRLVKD
Each item that follows carries a reported DC50.

Recorded DC50, per entry:
[
  {
    "molecule": "Cc1ncsc1-c1ccc(CNC(=O)[C@@H]2C[C@@H](O)CN2C(=O)[C@@H](NC(=O)CCCCCC(=O)NCCOCCOCCNC(=O)c2ccc3c(c2)c2nn(C)nc2n3-c2ccc(C(F)(F)F)cn2)C(C)(C)C)cc1",
    "measurement": "0.1 to 1 µM"
  },
  {
    "molecule": "Cc1ncsc1-c1ccc(CNC(=O)[C@@H]2C[C@@H](O)CN2C(=O)[C@@H](NC(=O)CCCCCC(=O)N(C)CCOCCOCCNC(=O)c2ccc3c(c2)c2cn(C)nc2n3-c2ccc(C(F)(F)F)cc2)C(C)(C)C)cc1",
    "measurement": "0.1 to 1 µM"
  },
  {
    "molecule": "Cc1ncsc1-c1ccc(CNC(=O)[C@@H]2C[C@@H](O)CN2C(=O)[C@@H](NC(=O)CCCCCc2cnnn2CCCCCCCNC(=O)c2ccc3c(c2)c2cn(C)nc2n3-c2ccc(C(F)(F)F)cc2)C(C)(C)C)cc1",
    "measurement": "0.1 to 1 µM"
  },
  {
    "molecule": "Cn1cc2c3cc(C(=O)NCCOCCOCCOCCNc4cccc5c4C(=O)N(C4CCC(=O)NC4=O)C5=O)ccc3n(-c3ccc(C(F)(F)F)cc3)c2n1 (centres unmarked)",
    "measurement": "9 to 30 µM"
  }
]

Noted for Cc1ncsc1-c1ccc(CNC(=O)[C@@H]2C[C@@H](O)CN2C(=O)[C@@H](NC(=O)COCCOCCOCCNC(=O)c2ccc3c(c2)c2cn(C)nc2n3-c2ccc(C(F)(F)F)cc2)C(C)(C)C)cc1 : its DC50 reads 0.1 to 1 µM
